Test system: BRN2 (POU3F2), luciferase reporter assay
PROTOCOL DESCRIPTION: cells
STUDY CONDITIONS: read-out: % of Inhibition (Luciferase assay) / 30µM
OUTCOME MEASURE: inhibition at 30 µM

C/C(=N\Nc1nc2ccccc2[nH]1)c1ccccc1    -58%
c1ccc2c(c1)C(=NNc1nc3ccccc3[nH]1)c1ccccc1-2    98.8%

Turning now to a further record.
Problem: Item under review: Oc1ccc(Cl)cc1/C=N/Nc1nc2ccccc2[nH]1 . Reported inhibition at 30 µM?
Solution: 28.1%

----------
In this section, each of the molecules is paired with its reported inhibition at 30 µM.
System: BRN2 (POU3F2), luciferase reporter assay
PROTOCOL DESCRIPTION: cells
STUDY CONDITIONS: read-out: % of Inhibition (Luciferase assay) / 30µM
Expressed in %, but write only the number.

Worked examples follow.
Cc1ccccc1/C=N\Nc1nc2ccccc2[nH]1    25.5
Cc1ccccc1/C=N/Nc1nc2ccccc2[nH]1    36.5
Oc1cccc(/C=N/Nc2nc3ccccc3[nH]2)c1O    -145
Cn1c(-c2ccc(-c3ccccc3)o2)nc2ccccc21    99.4

Problem: Return inhibition at 30 µM measured with BRN2 (POU3F2), luciferase reporter assay given this molecule: CC/C(=N/Nc1nc2ccccc2[nH]1)c1cccc(Cl)c1
Solution: 80.2

Problem: Likewise for Cc1cc(C(=O)Nc2cc(F)ccc2C)c2ccccc2n1 ?
Solution: 9.07

Problem: Check O=C1c2ccccc2C(=O)N1c1nc(-c2ccccc2)cs1 too.
Solution: -138

Problem: Next up: O=C(CSc1nc2ccccc2[nH]1)c1ccccc1
Solution: 9.16

Problem: And what about the molecule C/C(=N/Nc1nc2ccccc2[nH]1)c1ccccc1Cl ?
Solution: 74.1
